# Assayed System: Voltage-gated potassium channel subunit beta-2 (Rattus norvegicus) (UniProt P62483)
# Sequence (P62483 whole entry, looked up): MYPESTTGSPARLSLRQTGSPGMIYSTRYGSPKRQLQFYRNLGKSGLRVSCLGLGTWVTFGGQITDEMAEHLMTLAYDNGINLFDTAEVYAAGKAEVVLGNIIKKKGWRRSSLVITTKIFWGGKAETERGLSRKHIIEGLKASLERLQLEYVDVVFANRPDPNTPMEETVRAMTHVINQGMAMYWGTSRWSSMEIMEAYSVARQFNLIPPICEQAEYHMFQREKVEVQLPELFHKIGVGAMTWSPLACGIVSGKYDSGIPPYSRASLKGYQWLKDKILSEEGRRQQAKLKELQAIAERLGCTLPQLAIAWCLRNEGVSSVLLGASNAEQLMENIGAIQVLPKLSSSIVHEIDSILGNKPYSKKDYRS
# Measurement Protocol: enhancers of rat Kvbeta2 NADPH turnover – biochemical, NADPH fluorescence, primary screen (AID 623);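 further: fluorescence intensity change per second fitted from 20 to 320 s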
# Test Parameters: Recombinant KvBeta, NADPH fluorescence decrease slope, 10 min; at 10 µM; hits give low values
# NADPH fluorescence slope listing for each entry below
Just the number, please.

Reference set (5 entries):
compound=COC(=O)CSc1nc2ncc(Cl)cc2[nH]1 assayed_system="Voltage-gated potassium channel subunit beta-2 (Rattus norvegicus) (UniProt P62483)" result_type="NADPH fluorescence slope" number=-6.4e-05
compound="COc1ccc(-c2cc(C(F)(F)F)n3ncc(C(=O)NCC4CCCO4)c3n2)cc1 (stereo unspecified)" assayed_system="Voltage-gated potassium channel subunit beta-2 (Rattus norvegicus) (UniProt P62483)" result_type="NADPH fluorescence slope" number=2e-06
compound=CCc1nnc(-n2nc(C)cc2-c2ccccc2)n1N assayed_system="Voltage-gated potassium channel subunit beta-2 (Rattus norvegicus) (UniProt P62483)" result_type="NADPH fluorescence slope" number=2.6e-05
compound=COc1cc(C(=O)Nc2ccc(-n3cnnn3)c(C)c2)cc(OC)c1OC assayed_system="Voltage-gated potassium channel subunit beta-2 (Rattus norvegicus) (UniProt P62483)" result_type="NADPH fluorescence slope" number=3e-06
compound=O=C(Nn1cnnc1)c1cc2c(s1)CCCC2 assayed_system="Voltage-gated potassium channel subunit beta-2 (Rattus norvegicus) (UniProt P62483)" result_type="NADPH fluorescence slope" number=-4.9e-05

Let us move to another entry and its NADPH fluorescence slope.
Complete the entry with NADPH fluorescence slope for `CCc1cc2c(CN3CCN(CCO)CC3)cc(=O)oc2cc1O`
1.7e-06
